- Species: Homo sapiens
- Protocol Description: Liver toxicity in human assessed as induction of drug-induced liver injury by measuring severity class index; further: key of the grades not given here
Non-standard residues stand in square brackets, D forms with d. Residues, ends and D or L forms follow the SMILES beside them. dPhe(4-Cl) = N[C@H](Cc1ccc(Cl)cc1)C(=O)O; d2Nal = N[C@H](Cc1ccc2ccccc2c1)C(=O)O; dCit = NC(=O)NCCC[C@@H](N)C(=O)O; d3Pal = N[C@H](Cc1cccnc1)C(=O)O
Observable: DILI_severity_class

Molecule	Measured
COc1ccc2[n-]c([S@+]([O-])Cc3ncc(C)c(OC)c3C)nc2c1.[Na+]	4
CC(=O)N[C@H](Cc1ccc2ccccc2c1)C(=O)N[C@H](Cc1ccc(Cl)cc1)C(=O)N[C@H](Cc1cccnc1)C(=O)N[C@@H](CO)C(=O)N[C@@H](Cc1ccc(O)cc1)C(=O)N[C@H](CCCNC(N)=O)C(=O)N[C@@H](CC(C)C)C(=O)N[C@@H](CCCNC(=N)N)C(=O)N1CCC[C@H]1C(=O)N[C@H](C)C(N)=O [CETRORELIX] (Ac-[d2Nal][dPhe(4-Cl)][d3Pal]SY[dCit]LRP[dA]-NH2)	3
COc1ccc2c(C(=O)c3ccc(Cl)cc3)c(C)n(CC(=O)O)c2c1	8
CN1CCN(CCCN2c3ccccc3Sc3ccc(C(F)(F)F)cc32)CC1	2
CCCc1nc2c(C)cc(-c3nc4ccccc4n3C)cc2n1Cc1ccc(-c2ccccc2C(=O)O)cc1	3
CN(C)CCC=C1c2ccccc2CCc2ccccc21	5
O=C1c2c(O)ccc(O)c2C(=O)c2c(NCCNCCO)ccc(NCCNCCO)c21	3
O=c1[nH]cnc2c1ncn2[C@H]1CC[C@@H](CO)O1	8
CC1(C)NC(=O)N(c2ccc([N+](=O)[O-])c(C(F)(F)F)c2)C1=O [NILUTAMIDE]	8
CN(C)C(=O)C(CCN1CCC(O)(c2ccc(Cl)cc2)CC1)(c1ccccc1)c1ccccc1 [LOPERAMIDE]	0
Cc1onc(-c2ccccc2)c1-c1ccc(S(N)(=O)=O)cc1	3
O=C(O)c1cc(/N=N/c2ccc(O)c(C(=O)O)c2)ccc1O	8
CCN(C(C)=O)c1cccc(-c2ccnc3c(C#N)cnn23)c1	0
NC(CO)(CO)CO	6
CN1C(=O)C(O)N=C(c2ccccc2)c2cc(Cl)ccc21 (stereo not drawn)	3
Fc1ccc([C@@H]2CCNC[C@H]2COc2ccc3c(c2)OCO3)cc1	8
C#CCN(C)[C@H](C)Cc1ccccc1	0
NS(=O)(=O)c1cc(C2(O)NC(=O)c3ccccc32)ccc1Cl (stereo not drawn)	2
CCCN(CCC)S(=O)(=O)c1ccc(C(=O)O)cc1	6
CC(O)C(=O)[O-].[Na+] (stereo not drawn) [SODIUM LACTATE]	0
COc1ccc2c(C(=S)N(C)CC(=O)O)cccc2c1C(F)(F)F	8
CO[C@H]1C[C@@H]2CC[C@@H](C)[C@@](O)(O2)C(=O)C(=O)N2CCCC[C@H]2C(=O)O[C@H]([C@H](C)C[C@@H]2CC[C@@H](OC(=O)C(C)(CO)CO)[C@H](OC)C2)CC(=O)[C@H](C)/C=C(\C)[C@@H](O)[C@@H](OC)C(=O)[C@H](C)C[C@H](C)/C=C/C=C/C=C/1C	0
C[N+](C)(C)C[C@H](O)CC(=O)[O-]	0
CN(C)CCOc1ccc(/C(=C(/CCCl)c2ccccc2)c2ccccc2)cc1	3
CCCCCOC(=O)Nc1nc(=O)n([C@@H]2O[C@H](C)[C@@H](O)[C@H]2O)cc1F	2
CS(=O)(=O)CCNCc1ccc(-c2ccc3ncnc(Nc4ccc(OCc5cccc(F)c5)c(Cl)c4)c3c2)o1	8
CNC(=C[N+](=O)[O-])NCCSCc1csc(CN(C)C)n1	5
Oc1ccc(C2CNCCc3c2cc(O)c(O)c3Cl)cc1 (stereo not drawn)	0
CC(=O)CC(c1ccccc1)c1c(O)c2ccccc2oc1=O (stereo not drawn)	5
C[C@]12CCC(=O)C=C1CC[C@@H]1[C@@H]2[C@@H](O)C[C@@]2(C)[C@H]1CC[C@]2(O)C(=O)CO [HYDROCORTISONE]	0
Nc1ncnc2c1ncn2[C@@H]1O[C@H](CO)[C@@H](O)[C@H]1O	0
O=C1c2cccc3c2[C@H](CCC3)CN1[C@@H]1CN2CCC1CC2	4
O=P1(NCCCl)OCCCN1CCCl (stereo not drawn) [IFOSFAMIDE]	4
